Catalogue of molecules with associated inhibition of aggregation
- ASSAY_PROTOCOL: reduction of polyQ htt aggregates in cells – imaging, exon1htt(103Q)mCFP cells, high-content imaging, primary screen (AID 483);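 also: compound exposure lasted 3 days before fixation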
- EXPERIMENTAL_CONDITIONS: exon1htt(103Q)mCFP cell line, aggregate imaging, at 2 µM; stronger effect = higher value
Supply the numeric figure in %, leaving out any unit text.

>>> measurement("COc1ccc(CN2C(=O)C(O)(CC(=O)c3c(C)n[nH]c3C)c3ccccc32)cc1OC (centres undefined)")
-2.3
>>> measurement("Cc1ccc(NC2=NC(c3ccccc3)n3c(nc(C)cc3=O)N2)cc1 (centres undefined)")
-4.2

Query: Param item = `CC(C)CNC(=O)c1ccccc1NC(=O)CN(c1ccc2c(c1)OCCO2)S(C)(=O)=O` ; retrieve measured inhibition of aggregation.
Reply: -12.9

Query: Field entry: `COC(=O)c1oc2ccc(Br)cc2c1NC(=O)CN1CCN(C)CC1`
Reply: -3.2

Query: Field entry: `C/C(Cl)=C\Cn1c(NCCc2ccccc2)nc2c1c(=O)n(C)c(=O)n2C`
Reply: 29.8

Query: Field entry: `COC(=O)c1ccccc1NC(=O)c1cc(-c2ccc(OC)c(OC)c2)on1`
Reply: -3.3

Query: Field entry: `Cc1ccc(SCCNS(=O)(=O)c2ccc(F)cc2)cc1`
Reply: -4.1

Query: Field entry: CCSc1nc2c(c(=O)n1CC)SC(C)C2 (centres undefined)
Reply: 0.4

Query: Field entry: `O=S(=O)(CCOc1ccccc1)c1nc2ccccc2[nH]1`
Reply: -12.8

Query: Field entry: `CCN(CC)c1ccc(NC(=O)c2[nH]c(C)c(C(C)=O)c2C)c(C)c1`
Reply: 8.4

Query: Field entry: Cc1cc2c(c(=O)n1CCc1ccccc1)C(C(C)C)C(C#N)=C(N)O2 (centres undefined)
Reply: -1.8

Query: Field entry: COc1cc2nc(N3CCN(C(=O)C4CCCO4)CC3)nc(N)c2cc1OC (centres undefined)
Reply: -7.9

Query: Field entry: `CC(=O)N1CCc2cc(S(=O)(=O)CCC(=O)N3CCN(C(=O)c4ccco4)CC3)ccc21`
Reply: 7.5

====

- ASSAY_PROTOCOL: endothelial E-selectin expression blockers – imaging, HUVEC, immunofluorescence, MLSMR starter and 10KST1 sets, primary screen (AID 487);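 as to inhibition: signal is fraction of cell area covered by stained E-selectin grains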
- EXPERIMENTAL_CONDITIONS: HUVEC TNFalpha-induced E-selectin immunofluorescence imaging, at 2 µM; stronger effect = higher value
Active and inactive are the calls of the source.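 Rule for the calls: active = visually confirmed hit in the image check and inhibition above 20%; inconclusive = visually confirmed hit but inhibition not above 20%; inactive = no visual hit in the image check.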
Catalogue of compounds with associated inhibition

Use these answered entries as a reference point.
>>> measurement("CN1CCCN(C(=O)c2cc(=O)[nH]c3ccccc23)c2nc3ccccc3nc21")
"-33% (inactive)"
>>> measurement("Cc1csc(NC(=O)c2cccc(S(=O)(=O)N3CCCCC3)c2)n1")
"-30.5% (inactive)"
>>> measurement("COc1ccc(N2C(=O)CC(NC3CC3)C2=O)cc1 (stereo unspecified)")
"7.7% (inactive)"
>>> measurement("Fc1c(F)c(F)c(CSc2nc3ccccc3[nH]2)c(F)c1F")
"-40.6% (inactive)"

Query: Param item = CC(c1ccccc1)N1C(=O)c2ccc(C(=O)NCc3ccco3)cc2C1=O (stereo unspecified) ; retrieve measured inhibition.
Reply: 23.2% (inactive)

Query: Field entry: CC(=O)OC(C(=O)NCc1ccco1)c1cccnc1 (stereo unspecified)
Reply: -9.7% (inactive)

====

- STUDY_TARGET: Voltage-gated potassium channel subunit beta-2 (Rattus norvegicus) (UniProt P62483)
- Sequence (P62483 whole entry, looked up): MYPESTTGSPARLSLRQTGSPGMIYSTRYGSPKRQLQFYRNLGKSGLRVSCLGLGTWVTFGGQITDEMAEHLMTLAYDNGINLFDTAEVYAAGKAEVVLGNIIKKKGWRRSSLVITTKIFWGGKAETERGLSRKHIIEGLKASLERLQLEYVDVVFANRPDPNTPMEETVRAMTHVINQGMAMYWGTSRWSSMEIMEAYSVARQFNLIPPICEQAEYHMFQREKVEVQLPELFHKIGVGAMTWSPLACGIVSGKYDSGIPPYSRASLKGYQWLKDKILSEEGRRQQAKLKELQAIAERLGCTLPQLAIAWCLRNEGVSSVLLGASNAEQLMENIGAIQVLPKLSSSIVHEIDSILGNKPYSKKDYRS
- ASSAY_PROTOCOL: enhancers of rat Kvbeta2 NADPH turnover – biochemical, NADPH fluorescence, primary screen (AID 623);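 also: fluorescence intensity change per second fitted from 20 to 320 s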
- EXPERIMENTAL_CONDITIONS: Recombinant KvBeta, NADPH fluorescence decrease slope, 10 min; at 10 µM; stronger effect = lower value
ASSAY_ENDPOINT: NADPH fluorescence slope
Keep it simple and answer with nothing but the number.

Use these answered entries as a reference point.
>>> measurement("COCCOC(=O)C1=C(C)Nc2ncnn2C1c1ccc(F)cc1 (stereo not given)")
-0.000107
>>> measurement("O=C(NC1CCCCC1)[C@H](O)[C@@H](O)C(=O)NC1CCCCC1")
"-4.7e-05"
>>> measurement("CCOC(=O)N1CCN(CC(=O)Nc2c(C(=O)OC)[nH]c3cccc(Cl)c23)CC1")
"-2.3e-05"
>>> measurement("O=C(c1ccccc1)c1coc2ccc(O)c(CN3CCOCC3)c12")
"3.5e-06"
>>> measurement("O=C(COC(=O)c1ccc(NS(=O)(=O)c2ccc3c(c2)OCCO3)cc1)NCC1CCCO1 (stereo not given)")
"-3.4e-05"
>>> measurement("O=C(Cn1nnc2c(cnn2-c2ccc(F)cc2)c1=O)c1ccccc1F")
"-4.4e-05"
>>> measurement("COc1ccc(N2CCN(C(=O)CSc3ccccc3N)CC2)cc1")
-0.00016
>>> measurement("CC(=O)Nc1ccc(S(=O)(=O)n2cnc(C)c2)cc1")
"4.1e-05"
>>> measurement("O=C(COc1ccccc1Cl)OCC(=O)N1CCN(S(=O)(=O)c2ccccc2)CC1")
"7.9e-05"
>>> measurement("CC(C)(C)C1=C[C@@H](CO)C[C@@H](CO)C1")
-0.000123

Query: Could you share what NADPH fluorescence slope was measured for `CC(C)(C)SCCNC(=O)COc1ccccc1` , tested on Voltage-gated potassium channel subunit beta-2 (Rattus norvegicus) (UniProt P62483)?
Reply: -4.6e-05

Query: Field entry: `c1ccc2c3nnc4n(c-3nc2c1)CCCS4`
Reply: -2.5e-05

Query: Field entry: `Cc1ccccc1C(=O)N1CCC(C(=O)Nc2ccc(S(=O)(=O)N3CCCC3)cc2)CC1`
Reply: -3.8e-05

Query: Field entry: `Cc1ccccc1CN1CCN(CC(=O)NCc2ccco2)C1=O`
Reply: -0.000109

Query: Field entry: `COC(=O)Cn1cnc2c(nnn2-c2ccc(C)cc2)c1=O`
Reply: -3.1e-05

Query: Field entry: `Cc1ccc2oc(=O)c3cnn(CC(=O)N4CCCc5ccccc54)c3c2c1`
Reply: 1.1e-05

Query: Field entry: `COc1ccc(S(=O)(=O)NC2CCCCC2)c(C)c1C`
Reply: 1.8e-05

Query: Field entry: `O=C(COc1ccc(S(=O)(=O)N2CCCC2)cc1Cl)NC1CC1`
Reply: -1.9e-05

Query: Field entry: `CCOC(=O)C1CCN(c2c(NCCCN(CC)c3ccccc3)c(=O)c2=O)CC1`
Reply: -0.000398

Query: Field entry: `COc1cccc(CNc2cccc3cccnc23)c1O`
Reply: -7.6e-05

Query: Field entry: `Cc1cc(C)nc(SCc2nnc(SCc3ccccc3Cl)o2)n1`
Reply: -0.000278

Query: Field entry: `Cc1cnc(C(=O)Nc2ccc(-n3cnnn3)cc2)cn1`
Reply: -5.9e-05

Query: Field entry: `O=C1c2ccccc2-c2nc3ncnn3c(-c3ccccc3)c21`
Reply: -0.000383

Query: Field entry: N#Cc1c(NC(=O)COC(=O)C2CC3C=CC2C3)oc(-c2ccccc2)c1-c1ccccc1 (stereo not given)
Reply: -0.000409

Query: Field entry: `O=C(OCCCN1C(=O)c2ccccc2C1=O)c1ccco1`
Reply: 4.2e-05

Query: Field entry: CCC(C)n1[nH]c(=O)c2c(C)cc(C)nc21 (stereo not given)
Reply: -5.9e-05

Query: Field entry: `O=C(COc1ccc(Cl)cc1)Nc1ncccn1`
Reply: -7.3e-05

Query: Field entry: `COc1cccc2cc(C(=O)N3CCN(C45CC6CC(CC(C6)C4)C5)CC3)c(=O)oc12`
Reply: 2.5e-05

Query: Field entry: O=C(Nc1nc2ccc(S(=O)(=O)N3CCCC3)cc2s1)C1CCCO1 (stereo not given)
Reply: -4.6e-05

Query: Field entry: `CCOC(=O)c1ccccc1NC(=O)CSc1nc2c(c(=O)n(C)c(=O)n2C)n1C`
Reply: 3e-05

Query: Field entry: `Cc1ccc(-c2csc3nnc(SCC(=O)NCc4ccco4)n23)cc1`
Reply: -2.1e-05

Query: Field entry: `COc1ccc(-n2ncc3c(NCc4ccccn4)ncnc32)cc1`
Reply: -4e-05

Query: Field entry: `CCc1ccc(NS(=O)(=O)c2cccs2)cc1`
Reply: 3e-06

Query: Field entry: `O=c1[nH]c2cccnc2n1Cc1ccco1`
Reply: -4.8e-05

Query: Field entry: `Cc1ccc(S(=O)(=O)N(C)CC(=O)NC2CCCC2)cc1`
Reply: -2.6e-05

====

- ASSAY_PROTOCOL: endothelial E-selectin expression blockers – imaging, HUVEC, immunofluorescence, MLSMR starter and 10KST1 sets, primary screen (AID 487);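 as to nuclei count: 100% = median nuclei count of all wells on the same plate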
- EXPERIMENTAL_CONDITIONS: HUVEC TNFalpha-induced E-selectin immunofluorescence imaging, at 2 µM; measured here: cell number, toxicity
ASSAY_ENDPOINT: nuclei count (%)
Supply the numeric figure in %, leaving out any unit text.

Use these answered entries as a reference point.
>>> measurement("CCOC(=O)N1CCN(c2cc(=O)n(-c3ccc(OCC)cc3)c(=O)[nH]2)CC1")
112
>>> measurement("CCOc1ccc(OCc2ccc(C(=O)Nc3cccc(C)n3)o2)cc1")
117
>>> measurement("Cc1ccc(S(=O)(=O)N[C@@H](C)C(=O)N2CCC(C(=O)N3CCC[C@H]3C(=O)O)CC2)cc1")
129
>>> measurement("COc1ccccc1C(=O)N1CCCC(c2nc(-c3cc(OC)c(OC)c(OC)c3)no2)C1 (stereo not drawn)")
100
>>> measurement("NC(N)=Nc1nc(CSCC/C(N)=N/S(N)(=O)=O)cs1")
116

Query: Param item = Cc1ccccc1NC(=O)C1CCC(C)(C(=O)O)C1(C)C (stereo not drawn) ; retrieve measured nuclei count.
Reply: 109

Query: Field entry: `CCOC(=O)N1CCN(S(=O)(=O)c2ccc(Br)s2)CC1`
Reply: 98.6

Data credit: PubChem BioAssay
